- System: Cricetinae gen. sp.
- Experimental Protocol: Inhibition of Vaginal Candida (C-60 strain) infection in Hamsters, estimated as Percent Area under curve at 0.01 % concentration after 4 days of administration
- Format: functional, Cricetulus griseus

{"Compound": "Clc1ccc(C2(Cn3ccnc3)OCc3ccc(Cl)cc32)c(Cl)c1 (stereo not given)", "Inhibition / %": 26}
{"Compound": "Clc1ccc(C2(Cn3ccnc3)OCc3ccccc32)cc1 (stereo not given)", "Inhibition / %": 30}
{"Compound": "Clc1ccc(C2(Cn3ccnc3)OCc3ccccc32)c(Cl)c1 (stereo not given)", "Inhibition / %": 78}
{"Compound": "Fc1ccc(C2(Cn3ccnc3)OCc3ccccc32)c(F)c1 (stereo not given)", "Inhibition / %": 69}
{"Compound": "Clc1ccc(COC(Cn2ccnc2)c2ccc(Cl)cc2Cl)c(Cl)c1 (stereo not given)", "Inhibition / %": 33}

====

- Test system: Candida tropicalis
- Experimental Protocol: Minimum inhibitory concentration against Candida tropicalis at a pH of 5.7 using SDB medium
- Format: functional

{"Compound": "Clc1ccc(COC(Cn2ccnc2)c2ccc(Cl)cc2Cl)c(Cl)c1 (stereo not drawn) [MICONAZOLE]", "System": "Candida tropicalis", "MIC": "4 µg/mL"}
{"Compound": "c1ccc(C2(Cn3ccnc3)OCc3ccccc32)cc1 (stereo not drawn)", "System": "Candida tropicalis", "MIC": "64 µg/mL"}
{"Compound": "Clc1ccc(C2(Cn3ccnc3)OCc3ccccc32)c(Cl)c1 (stereo not drawn)", "System": "Candida tropicalis", "MIC": "32 µg/mL"}
{"Compound": "Clc1ccc(C2(Cn3ccnc3)OCc3c(Cl)cc(Cl)cc32)c(Cl)c1 (stereo not drawn)", "System": "Candida tropicalis", "MIC": "8 µg/mL"}
{"Compound": "Clc1ccc(C2(Cn3ccnc3)OCc3ccc(Cl)cc32)c(Cl)c1 (stereo not drawn)", "System": "Candida tropicalis", "MIC": "8 µg/mL"}
{"Compound": "c1ccc(C2(Cn3ccnc3)SCc3ccccc32)cc1 (stereo not drawn)", "System": "Candida tropicalis", "MIC": "64 µg/mL"}
{"Compound": "Clc1ccc(C2(Cn3cncn3)OCc3ccccc32)cc1 (stereo not drawn)", "System": "Candida tropicalis", "MIC": "64 µg/mL"}
{"Compound": "Fc1ccc(C2(Cn3ccnc3)OCc3ccccc32)c(F)c1 (stereo not drawn)", "System": "Candida tropicalis", "MIC": "64 µg/mL"}
{"Compound": "Clc1ccc(CC2(Cn3ccnc3)OCc3ccccc32)cc1 (stereo not drawn)", "System": "Candida tropicalis", "MIC": "> 64 µg/mL"}
{"Compound": "Clc1ccc(C2(Cn3ccnc3)OCc3ccccc32)cc1 (stereo not drawn)", "System": "Candida tropicalis", "MIC": "16 µg/mL"}
{"Compound": "OC1OC(Cn2cncn2)(c2ccc(Cl)cc2)c2ccccc21 (stereo not drawn)", "System": "Candida tropicalis", "MIC": "> 64 µg/mL"}
{"Compound": "Clc1ccc(C2(Cn3ccnc3)OCCc3ccccc32)cc1 (stereo not drawn)", "System": "Candida tropicalis", "MIC": "64 µg/mL"}
{"Compound": "c1ccc(-c2ccc(C3(Cn4ccnc4)OCc4ccccc43)cc2)cc1 (stereo not drawn)", "System": "Candida tropicalis", "MIC": "32 µg/mL"}

====

- Tested on: Nannizzia gypsea
- Experimental Protocol: Minimum inhibitory concentration against Microsporum gypseum at a pH of 5.7 using SDB medium
- Assay type: functional
// returns 0 (no) unless MIC is strictly below 4 µg/mL, in which case 1 (yes)

{"Molecule": "Clc1ccc(C2(Cn3ccnc3)OCc3ccccc32)c(Cl)c1 (stereo unspecified)", "Group Label": "1 (yes)"}
{"Molecule": "Clc1ccc(C2(Cn3ccnc3)OCc3c(Cl)cc(Cl)cc32)c(Cl)c1 (stereo unspecified)", "Group Label": "0 (no)"}
{"Molecule": "OC1OC(Cn2cncn2)(c2ccc(Cl)cc2)c2ccccc21 (stereo unspecified)", "Group Label": "0 (no)"}
{"Molecule": "c1ccc(C2(Cn3ccnc3)SCc3ccccc32)cc1 (stereo unspecified)", "Group Label": "0 (no)"}
{"Molecule": "c1ccc(-c2ccc(C3(Cn4ccnc4)OCc4ccccc43)cc2)cc1 (stereo unspecified)", "Group Label": "0 (no)"}
{"Molecule": "Clc1ccc(C2(Cn3ccnc3)OCCc3ccccc32)cc1 (stereo unspecified)", "Group Label": "1 (yes)"}
{"Molecule": "c1ccc(C2(Cn3ccnc3)OCc3ccccc32)cc1 (stereo unspecified)", "Group Label": "0 (no)"}
{"Molecule": "Clc1ccc(COC(Cn2ccnc2)c2ccc(Cl)cc2Cl)c(Cl)c1 (stereo unspecified) [MICONAZOLE]", "Group Label": "1 (yes)"}
{"Molecule": "Clc1ccc(CC2(Cn3ccnc3)OCc3ccccc32)cc1 (stereo unspecified)", "Group Label": "0 (no)"}

====

- Tested on: Arthrodermataceae
- Experimental Protocol: Compound is evaluated for geometric mean of MIC values of dermatophytes
- Format: functional
- Parameters: unit not given beside the values

{"Compound": "Clc1ccc(C2(Cn3ccnc3)OCc3ccccc32)cc1 (stereo unspecified)", "Geometric mean": "<0.86"}
{"Compound": "Clc1ccc(C2(Cn3ccnc3)OCc3ccc(Cl)cc32)c(Cl)c1 (stereo unspecified)", "Geometric mean": 1.3}
{"Compound": "Clc1ccc(C2(Cn3ccnc3)OCCc3ccccc32)cc1 (stereo unspecified)", "Geometric mean": "<0.22"}
{"Compound": "Clc1ccc(CC2(Cn3ccnc3)OCc3ccccc32)cc1 (stereo unspecified)", "Geometric mean": 4.6}
{"Compound": "Fc1ccc(C2(Cn3ccnc3)OCc3ccccc32)c(F)c1 (stereo unspecified)", "Geometric mean": 2.5}
{"Compound": "Clc1ccc(C2(Cn3cncn3)OCc3ccccc32)cc1 (stereo unspecified)", "Geometric mean": "<0.57"}
{"Compound": "Clc1ccc(C2(Cn3ccnc3)OCc3c(Cl)cc(Cl)cc32)c(Cl)c1 (stereo unspecified)", "Geometric mean": 9.5}
{"Compound": "OC1OC(Cn2cncn2)(c2ccc(Cl)cc2)c2ccccc21 (stereo unspecified)", "Geometric mean": ">54"}
{"Compound": "c1ccc(C2(Cn3ccnc3)OCc3ccccc32)cc1 (stereo unspecified)", "Geometric mean": "<5.2"}
{"Compound": "Clc1ccc(C2(Cn3ccnc3)OCc3ccccc32)c(Cl)c1 (stereo unspecified)", "Geometric mean": "<0.04"}
{"Compound": "Clc1ccc(COC(Cn2ccnc2)c2ccc(Cl)cc2Cl)c(Cl)c1 (stereo unspecified) [MICONAZOLE]", "Geometric mean": "<0.03"}

====

Reported Geometric mean values for a set of compounds
- Experimental Protocol: Geometric mean for the above three species of Candida, tested in EMEM medium
- Format: functional
Metric: Geometric mean

{"Compound": "Clc1ccc(CC2(Cn3ccnc3)OCc3ccccc32)cc1 (configuration not stated)", "Sign": "=", "Measured Value": 0.25}
{"Compound": "Clc1ccc(COC(Cn2ccnc2)c2ccc(Cl)cc2Cl)c(Cl)c1 (configuration not stated)", "Sign": "=", "Measured Value": 0.18}
{"Compound": "Clc1ccc(C2(Cn3ccnc3)OCc3ccc(Cl)cc32)c(Cl)c1 (configuration not stated)", "Sign": "<", "Measured Value": 0.031}
{"Compound": "c1ccc(C2(Cn3ccnc3)SCc3ccccc32)cc1 (configuration not stated)", "Sign": "=", "Measured Value": 0.19}
{"Compound": "c1ccc(-c2ccc(C3(Cn4ccnc4)OCc4ccccc43)cc2)cc1 (configuration not stated)", "Sign": "=", "Measured Value": 0.16}
{"Compound": "c1ccc(C2(Cn3ccnc3)OCc3ccccc32)cc1 (configuration not stated)", "Sign": "=", "Measured Value": 0.2}
{"Compound": "Clc1ccc(C2(Cn3ccnc3)OCc3ccccc32)c(Cl)c1 (configuration not stated)", "Sign": "<", "Measured Value": 0.02}
{"Compound": "Fc1ccc(C2(Cn3ccnc3)OCc3ccccc32)c(F)c1 (configuration not stated)", "Sign": "<", "Measured Value": 0.02}
{"Compound": "Clc1ccc(C2(Cn3ccnc3)OCc3ccccc32)cc1 (configuration not stated)", "Sign": "<", "Measured Value": 0.03}
{"Compound": "Clc1ccc(C2(Cn3ccnc3)OCc3c(Cl)cc(Cl)cc32)c(Cl)c1 (configuration not stated)", "Sign": "=", "Measured Value": 2}
{"Compound": "Clc1ccc(C2(Cn3cncn3)OCc3ccccc32)cc1 (configuration not stated)", "Sign": "<", "Measured Value": 0.02}
{"Compound": "Clc1ccc(C2(Cn3ccnc3)OCCc3ccccc32)cc1 (configuration not stated)", "Sign": "<", "Measured Value": 0.02}

====

- Tested on: Candida tropicalis
- Experimental Protocol: Minimum inhibitory concentration against Candida tropicalis using eagles minimum essential medium (EMEM)
- Format: functional
Reported MIC values for a set of compounds

{"Compound": "Clc1ccc(C2(Cn3ccnc3)OCc3c(Cl)cc(Cl)cc32)c(Cl)c1 (configuration not stated)", "Sign": "=", "MIC [µg/mL]": 2}
{"Compound": "c1ccc(C2(Cn3ccnc3)SCc3ccccc32)cc1 (configuration not stated)", "Sign": "=", "MIC [µg/mL]": 0.125}
{"Compound": "Clc1ccc(C2(Cn3ccnc3)OCCc3ccccc32)cc1 (configuration not stated)", "Sign": "<", "MIC [µg/mL]": 0.031}
{"Compound": "Fc1ccc(C2(Cn3ccnc3)OCc3ccccc32)c(F)c1 (configuration not stated)", "Sign": "<", "MIC [µg/mL]": 0.031}
{"Compound": "c1ccc(-c2ccc(C3(Cn4ccnc4)OCc4ccccc43)cc2)cc1 (configuration not stated)", "Sign": "=", "MIC [µg/mL]": 0.063}
{"Compound": "Clc1ccc(C2(Cn3ccnc3)OCc3ccccc32)c(Cl)c1 (configuration not stated)", "Sign": "<", "MIC [µg/mL]": 0.031}
{"Compound": "Clc1ccc(C2(Cn3ccnc3)OCc3ccccc32)cc1 (configuration not stated)", "Sign": "=", "MIC [µg/mL]": 0.125}
{"Compound": "Clc1ccc(COC(Cn2ccnc2)c2ccc(Cl)cc2Cl)c(Cl)c1 (configuration not stated)", "Sign": "=", "MIC [µg/mL]": 0.125}
{"Compound": "c1ccc(C2(Cn3ccnc3)OCc3ccccc32)cc1 (configuration not stated)", "Sign": "=", "MIC [µg/mL]": 0.125}
{"Compound": "Clc1ccc(C2(Cn3cncn3)OCc3ccccc32)cc1 (configuration not stated)", "Sign": "<", "MIC [µg/mL]": 0.031}
{"Compound": "Clc1ccc(CC2(Cn3ccnc3)OCc3ccccc32)cc1 (configuration not stated)", "Sign": "=", "MIC [µg/mL]": 0.25}
{"Compound": "Clc1ccc(C2(Cn3ccnc3)OCc3ccc(Cl)cc32)c(Cl)c1 (configuration not stated)", "Sign": "=", "MIC [µg/mL]": 1}
